Molecular target: IMP-1 (Serratia marcescens, UniProt P52699)
Sequence (P52699 whole entry, looked up): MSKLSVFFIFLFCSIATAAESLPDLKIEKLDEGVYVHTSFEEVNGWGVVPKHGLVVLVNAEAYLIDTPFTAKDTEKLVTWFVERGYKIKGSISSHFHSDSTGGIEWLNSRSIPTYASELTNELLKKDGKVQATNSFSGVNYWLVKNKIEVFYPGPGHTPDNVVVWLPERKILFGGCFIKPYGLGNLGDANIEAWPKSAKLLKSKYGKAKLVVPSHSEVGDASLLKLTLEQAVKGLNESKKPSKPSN
Experiment: biochemical
Format: biochemical
Settings: IMP-1 enzyme, CCF2-FA substrate; read-out: IMP-1 IC50
Reported IC50 values for a set of compounds
Your answer should be a plain number; it is taken to be in nM.

Examples from the recorded data:
NC1CCC(N[C@H]2CC[C@H](c3ccc(C(F)(F)F)c(S(N)(=O)=O)c3-c3nnn[nH]3)CC2)CC1 (stereo partly shown) [Example 701]	62.9
N=C(NCCCN)c1ccc(-c2ccc(C(F)(F)F)c(S(N)(=O)=O)c2-c2nn[nH]n2)cc1	200
NS(=O)(=O)c1cccc(-c2cccc3sc(NC4CCN(CCF)CC4)nc23)c1-c1nnn[nH]1	31.8

Here is another compound to look at.
Q) For the compound shown here, NC[C@H]1CC[C@@H](c2ccc(CCC3CCNCC3)c(S(N)(=O)=O)c2-c2nnn[nH]2)CC1 , give the reported IC50.
A) 84.1

The measurements presented in this section are drawn from patent US9708336B2.
